Biological target: T1, E3 ubiquitin-protein ligase NEDD4 (NEDD4) WW2 domain, GST-tagged (human)
T1 construct: also called NEDD4 WW2-GST
T1 sequence (P46934 whole entry, the tested form may be a part): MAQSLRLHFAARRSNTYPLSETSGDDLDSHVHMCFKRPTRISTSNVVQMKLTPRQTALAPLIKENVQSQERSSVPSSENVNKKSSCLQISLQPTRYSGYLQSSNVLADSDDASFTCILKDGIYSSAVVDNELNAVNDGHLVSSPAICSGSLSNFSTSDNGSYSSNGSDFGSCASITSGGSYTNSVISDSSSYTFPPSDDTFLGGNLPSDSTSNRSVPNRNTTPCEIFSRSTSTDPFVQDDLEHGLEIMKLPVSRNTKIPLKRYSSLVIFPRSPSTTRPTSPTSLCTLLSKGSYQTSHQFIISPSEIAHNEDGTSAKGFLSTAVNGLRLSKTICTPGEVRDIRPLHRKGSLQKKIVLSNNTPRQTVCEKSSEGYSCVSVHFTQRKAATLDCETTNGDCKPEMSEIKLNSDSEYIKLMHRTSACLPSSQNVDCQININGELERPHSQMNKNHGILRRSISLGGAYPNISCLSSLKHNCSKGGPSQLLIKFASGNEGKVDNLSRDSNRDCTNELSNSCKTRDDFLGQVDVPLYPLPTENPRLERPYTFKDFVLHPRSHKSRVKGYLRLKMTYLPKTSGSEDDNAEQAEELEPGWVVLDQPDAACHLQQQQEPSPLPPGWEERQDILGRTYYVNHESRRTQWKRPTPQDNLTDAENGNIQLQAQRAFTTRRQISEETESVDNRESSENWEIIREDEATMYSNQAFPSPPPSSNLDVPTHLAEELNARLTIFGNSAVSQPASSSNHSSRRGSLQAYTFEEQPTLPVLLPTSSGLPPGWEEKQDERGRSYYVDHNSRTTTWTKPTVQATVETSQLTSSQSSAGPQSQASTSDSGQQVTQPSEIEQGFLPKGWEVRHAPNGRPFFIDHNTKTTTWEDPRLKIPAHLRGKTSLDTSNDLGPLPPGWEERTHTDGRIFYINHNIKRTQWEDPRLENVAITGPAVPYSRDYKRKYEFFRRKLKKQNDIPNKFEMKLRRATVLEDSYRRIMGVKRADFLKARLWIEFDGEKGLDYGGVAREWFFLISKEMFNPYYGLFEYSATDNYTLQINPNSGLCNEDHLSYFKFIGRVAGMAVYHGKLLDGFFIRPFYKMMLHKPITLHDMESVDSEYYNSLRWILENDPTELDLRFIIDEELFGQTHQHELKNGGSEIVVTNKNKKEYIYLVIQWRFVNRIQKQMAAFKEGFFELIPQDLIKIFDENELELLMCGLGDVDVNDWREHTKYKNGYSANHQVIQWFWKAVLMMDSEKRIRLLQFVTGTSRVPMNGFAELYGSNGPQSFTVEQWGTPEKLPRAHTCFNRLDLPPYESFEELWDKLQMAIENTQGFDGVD
Assay: fluorescence polarisation
Conditions: both partners purified
Where no end group is shown, it is not given here.
property_name: Kd

>>> measurement("TDSPPPYSAG (also: FITC label, position not given here) [FITC-UL56(HHV-2)]")
"4.1 µM"
